Biological target: Human HER3, endogenous, on human cancer cell lines (SK-Br-3, MCF7, BT-474) (human, UniProt P21860 20-1342)
Sequence (P21860 20-1342): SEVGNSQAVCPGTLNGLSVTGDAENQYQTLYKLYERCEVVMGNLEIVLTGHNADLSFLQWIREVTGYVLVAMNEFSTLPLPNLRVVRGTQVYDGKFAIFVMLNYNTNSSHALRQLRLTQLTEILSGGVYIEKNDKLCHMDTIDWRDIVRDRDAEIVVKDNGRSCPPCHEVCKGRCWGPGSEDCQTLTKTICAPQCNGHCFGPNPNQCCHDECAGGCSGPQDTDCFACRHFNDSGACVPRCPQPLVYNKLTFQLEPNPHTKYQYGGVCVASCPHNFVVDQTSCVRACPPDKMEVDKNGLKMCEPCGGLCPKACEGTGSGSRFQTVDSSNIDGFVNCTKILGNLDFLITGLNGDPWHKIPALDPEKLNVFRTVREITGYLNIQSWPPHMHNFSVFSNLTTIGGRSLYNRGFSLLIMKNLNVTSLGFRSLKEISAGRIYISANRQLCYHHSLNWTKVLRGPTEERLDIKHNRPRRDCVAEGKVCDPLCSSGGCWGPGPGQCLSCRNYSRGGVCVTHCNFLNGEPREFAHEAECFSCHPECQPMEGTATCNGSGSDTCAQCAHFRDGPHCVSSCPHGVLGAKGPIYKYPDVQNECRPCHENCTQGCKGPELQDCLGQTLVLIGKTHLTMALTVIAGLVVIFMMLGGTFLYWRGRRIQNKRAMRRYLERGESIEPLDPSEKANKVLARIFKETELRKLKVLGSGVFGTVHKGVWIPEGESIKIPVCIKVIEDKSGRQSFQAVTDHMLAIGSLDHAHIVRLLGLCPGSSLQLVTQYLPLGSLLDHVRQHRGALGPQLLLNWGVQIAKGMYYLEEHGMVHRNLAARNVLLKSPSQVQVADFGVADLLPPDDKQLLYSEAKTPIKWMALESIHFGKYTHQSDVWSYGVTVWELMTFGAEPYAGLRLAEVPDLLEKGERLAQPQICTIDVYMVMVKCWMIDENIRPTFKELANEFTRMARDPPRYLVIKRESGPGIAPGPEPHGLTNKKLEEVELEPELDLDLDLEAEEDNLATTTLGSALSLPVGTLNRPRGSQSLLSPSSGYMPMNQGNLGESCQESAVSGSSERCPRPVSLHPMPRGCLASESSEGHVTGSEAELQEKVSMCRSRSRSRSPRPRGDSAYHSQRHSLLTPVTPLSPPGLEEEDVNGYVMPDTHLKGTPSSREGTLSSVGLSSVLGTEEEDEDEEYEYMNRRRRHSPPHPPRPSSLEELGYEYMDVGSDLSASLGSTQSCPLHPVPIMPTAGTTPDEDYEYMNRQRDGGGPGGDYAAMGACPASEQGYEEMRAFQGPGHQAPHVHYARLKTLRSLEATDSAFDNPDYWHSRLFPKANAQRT
Test: cell-based or functional assay
Measure Name: SK-Br-3 proliferation IC50 (nM)
Quick note: give the figure in nM, leave out the unit.

MOR12510 (antibody, human IgG1, kappa, V domains shown, tested as IgG) VH: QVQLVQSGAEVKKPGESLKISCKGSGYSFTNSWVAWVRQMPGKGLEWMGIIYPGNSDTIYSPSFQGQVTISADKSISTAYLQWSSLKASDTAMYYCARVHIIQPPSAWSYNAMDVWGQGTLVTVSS VL: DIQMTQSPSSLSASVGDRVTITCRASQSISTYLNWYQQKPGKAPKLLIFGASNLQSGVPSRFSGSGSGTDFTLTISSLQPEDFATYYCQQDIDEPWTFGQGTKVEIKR    0.355

IN: Consider the binder MOR13762 (antibody, human IgG1, kappa, V domains shown, tested as IgG) VH: QVQLVQSGAEVKKPGESLKISCKGSGYSFTNTWVAWVRQMPGKGLEWMGIIYPGQSDTIYSPSFQGQVTISADKSISTAYLQWSSLKASDTAMYYCARVHIIQPPSAWSYNAMDVWGQGTLVTVSS VL: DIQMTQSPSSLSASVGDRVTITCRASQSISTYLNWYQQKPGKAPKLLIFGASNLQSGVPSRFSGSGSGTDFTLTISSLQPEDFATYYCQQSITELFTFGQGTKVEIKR and give its measured SK-Br-3 proliferation IC50.
OUT: 0.053

IN: Consider the binder MOR12923 (antibody, human IgG1, kappa, V domains shown) VH: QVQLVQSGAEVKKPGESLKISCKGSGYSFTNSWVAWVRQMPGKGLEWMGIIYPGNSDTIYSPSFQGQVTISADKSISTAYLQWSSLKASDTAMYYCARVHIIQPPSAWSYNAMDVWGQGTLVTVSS VL: DIQMTQSPSSLSASVGDRVTITCRASQSISTYLNWYQQKPGKAPKLLIFGASNLQSGVPSRFSGSGSGTDFTLTISSLQPEDFATYYCQQSMYLPFTFGQGTKVEIKR and give its measured SK-Br-3 proliferation IC50.
OUT: 0.062

IN: Consider the binder MOR13755 (antibody, human IgG1, kappa, V domains shown, tested as IgG) VH: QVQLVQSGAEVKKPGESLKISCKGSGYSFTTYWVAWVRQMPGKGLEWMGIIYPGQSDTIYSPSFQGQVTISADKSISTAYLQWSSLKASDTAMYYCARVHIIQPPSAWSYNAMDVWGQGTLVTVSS VL: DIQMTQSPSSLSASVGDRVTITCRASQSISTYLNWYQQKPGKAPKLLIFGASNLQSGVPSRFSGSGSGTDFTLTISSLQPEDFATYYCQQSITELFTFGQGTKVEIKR and give its measured SK-Br-3 proliferation IC50.
OUT: 0.207

IN: Consider the binder MOR13765 (antibody, human IgG1, kappa, V domains shown, tested as IgG) VH: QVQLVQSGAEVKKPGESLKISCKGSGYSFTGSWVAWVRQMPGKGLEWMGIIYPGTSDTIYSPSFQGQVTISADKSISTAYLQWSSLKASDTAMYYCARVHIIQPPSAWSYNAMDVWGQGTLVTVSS VL: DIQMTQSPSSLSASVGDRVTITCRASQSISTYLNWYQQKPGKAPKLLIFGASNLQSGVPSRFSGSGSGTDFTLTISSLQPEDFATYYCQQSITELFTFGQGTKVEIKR and give its measured SK-Br-3 proliferation IC50.
OUT: 0.732
